# SYSTEM_UNDER_TEST: Trace amine-associated receptor 1 (Homo sapiens) (UniProt Q96RJ0)
# Sequence (Q96RJ0 whole entry, looked up): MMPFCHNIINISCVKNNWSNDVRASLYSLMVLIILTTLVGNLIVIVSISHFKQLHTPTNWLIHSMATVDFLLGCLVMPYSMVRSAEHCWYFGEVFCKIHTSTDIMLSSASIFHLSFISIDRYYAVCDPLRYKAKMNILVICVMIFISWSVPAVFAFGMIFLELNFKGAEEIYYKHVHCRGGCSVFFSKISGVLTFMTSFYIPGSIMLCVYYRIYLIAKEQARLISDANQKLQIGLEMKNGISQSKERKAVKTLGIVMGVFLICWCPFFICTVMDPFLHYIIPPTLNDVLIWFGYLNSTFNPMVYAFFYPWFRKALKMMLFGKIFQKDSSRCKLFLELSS
# ASSAY_EXPLANATION: blockers of beta-PEA-driven TAAR1 calcium signal – Fluo-8 calcium fluorescence, CHO RD-HGA16 cells, primary screen (AID 624466);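 note: 0% = DMSO plus EC80 beta-PEA response and 100% = DMSO alone without agonist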
# MEASUREMENT_CONTEXT: CHO RD-HGA16 TAAR1, Fluo-8 calcium fluorescence, antagonist; at 3 µM; active compounds read high
Hit rate of the full screen: of about 360,000 compounds, about 5,400 (1.5%) were called active. This is one part of a sample in which actives are shown more often than they occur.
MEASUREMENT_KIND: inhibition (%)
Output spec: scalar in %, unitless text.

Sample answers from the record:
Which value of inhibition has been reported for CC(=O)NC(=S)NNC(=O)c1ccc(Br)cc1 in the records?
25.8

Which value of inhibition has been reported for COc1ccccc1N1CC(C(=O)NCCN2C(=O)S/C(=C\c3cccnc3)C2=O)CC1=O (stereo not given) in the records?
-4.74

Which value of inhibition has been reported for CC(C)(C)NC(=O)c1cccc(NC(=O)Cc2ccc(Br)cc2)c1 in the records?
-5.95

Which value of inhibition has been reported for COc1ccc(C(=O)NC(=S)NNC(=O)CCc2ccccc2)cc1 in the records?
66.2

Which value of inhibition has been reported for CC(=O)Nc1ccc(-c2csc(NC(=O)Nc3ccccc3)n2)cc1 in the records?
63.2

Which value of inhibition has been reported for Cc1nc2ccccc2n1CC(=O)N/N=C/c1cccs1 in the records?
56.9

Which value of inhibition has been reported for Cc1noc(C)c1NC(=O)Nc1ccc2c(c1)C(=O)N([C@H](C)CO)C[C@H](C)[C@H](CN(C)Cc1ccncc1)OCCCC[C@@H](C)O2 in the records?
8.35

Which value of inhibition has been reported for NC(c1ccccc1)c1csc(NC(=O)Nc2cccc(C(F)(F)F)c2)n1 (stereo not given) in the records?
35.6

Others:
Which value of inhibition has been reported for O=C(NCCN1C(=O)S/C(=C\c2cccnc2)C1=O)c1cccc(OC(F)F)c1 in the records?
7.53

Which value of inhibition has been reported for O=C(Nc1cccc(NC(=O)c2ccc(Br)cc2)c1)c1ccccc1 in the records?
66

----------
compounds and their reported inhibition
# SYSTEM_UNDER_TEST: Trace amine-associated receptor 1 (Homo sapiens) (UniProt Q96RJ0)
# ASSAY_EXPLANATION: blockers of beta-PEA-driven TAAR1 calcium signal – Fluo-8 calcium fluorescence, CHO RD-HGA16 cells, primary screen (AID 624466);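 note: 0% = DMSO plus EC80 beta-PEA response and 100% = DMSO alone without agonist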
# MEASUREMENT_CONTEXT: CHO RD-HGA16 TAAR1, Fluo-8 calcium fluorescence, antagonist; at 3 µM; active compounds read high
In all, about 360,000 compounds went through this assay and about 5,400 (1.5%) were called active. Many of the other results were omitted from the sample, so actives are more common in it than they were.
Output spec: scalar in %, unitless text.

Sample answers from the record:
Which value of inhibition has been reported for CCOC(=O)C1=C(c2ccccc2)O/C(=C(/C(=O)OC)C(F)(F)F)S1 in the records?
-4.35

Which value of inhibition has been reported for O=C(Nc1cccc(S(=O)(=O)N2CCCCC2)c1)c1cncc(Br)c1 in the records?
28.2

Others:
Which value of inhibition has been reported for CC(C)c1cccc(-c2csc(C(O)c3ccccc3)n2)c1 (centres undefined) in the records?
17.5

Which value of inhibition has been reported for CN1/C(=C\C(=O)c2oc3ccccc3c2N)C(C)(C)c2ccccc21 in the records?
51.5

Which value of inhibition has been reported for COC(=O)[C@]12CCCCC=C1N(Cc1ccco1)C(=O)[C@H](CC(=O)NCCCCc1ccccc1)C2 in the records?
12.7

Which value of inhibition has been reported for Cc1onc(-c2c(F)cccc2Cl)c1C(=O)Nc1cccc(S(=O)(=O)N2CCCCC2)c1 in the records?
60.4

Which value of inhibition has been reported for CC(=O)Nc1cccc(OCC(=O)/C=C2\N(C)c3ccccc3C2(C)C)c1 in the records?
32.4

Which value of inhibition has been reported for CC(C)(C)NC(=O)CN(C(=O)c1csnn1)c1ccccc1-c1ccccc1 in the records?
5.99

Which value of inhibition has been reported for Cc1ccnc(NC(=O)C2CCN(S(=O)(=O)c3c(C)c(C)cc(C)c3C)CC2)c1 in the records?
50

Which value of inhibition has been reported for CN(Cc1ccccc1)C(=O)[C@@H]1CCCN1C(=O)[C@@H]1CCCN1C(=O)c1c(F)cccc1F in the records?
-1.21
